target: Dopamine D3 (Homo sapiens); construct: Eurofins (contract screening) 219800; assay: Eurofins SafetyScreen panel; type: binding
Sequence (P35462 whole entry): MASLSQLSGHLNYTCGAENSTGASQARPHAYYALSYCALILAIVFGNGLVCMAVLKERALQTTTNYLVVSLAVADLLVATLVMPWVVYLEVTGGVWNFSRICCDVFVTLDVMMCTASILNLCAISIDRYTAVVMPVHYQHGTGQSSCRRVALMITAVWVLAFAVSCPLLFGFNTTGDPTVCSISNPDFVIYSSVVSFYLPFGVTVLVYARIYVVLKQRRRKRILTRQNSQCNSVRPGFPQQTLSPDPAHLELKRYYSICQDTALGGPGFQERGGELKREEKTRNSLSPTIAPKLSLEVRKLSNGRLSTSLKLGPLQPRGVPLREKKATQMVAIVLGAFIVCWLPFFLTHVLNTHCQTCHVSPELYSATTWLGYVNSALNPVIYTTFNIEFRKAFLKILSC
experimental-readout: IC50 (µM)
Answers are plain numbers, in µM.

Q: Which measured IC50 value corresponds to `O=S(=O)(c1cccc(F)c1)n1ccc2c(N3CCNCC3)nc3ccccc3c21` ?
Result: 0.63

###

target: Dopamine D3 (Homo sapiens)
experimental-readout: pKi
Answers are plain numbers, as −log10 of the molar value.

Q: Which measured pKi value corresponds to O=S(=O)(c1cccc(F)c1)n1ccc2c(N3CCNCC3)nc3ccccc3c21 [FPPQ] ?
Result: 6.68
